system.name: CHK1 kinase (Homo sapiens, UniProt O14757)
Construct: The kinase domain is expressed in baculovirus and purified by the GST tag; GST; made in house; host or cells: baculovirus system (insect cells implied)
Sequence (O14757 9-265 limits assumed): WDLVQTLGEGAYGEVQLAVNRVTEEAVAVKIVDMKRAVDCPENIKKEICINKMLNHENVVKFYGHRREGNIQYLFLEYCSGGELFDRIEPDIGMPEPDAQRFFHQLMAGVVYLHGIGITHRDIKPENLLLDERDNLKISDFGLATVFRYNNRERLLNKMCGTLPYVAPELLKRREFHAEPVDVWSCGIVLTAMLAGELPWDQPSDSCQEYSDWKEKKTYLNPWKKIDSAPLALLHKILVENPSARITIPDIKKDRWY
procedure.summary: Checkpoint Kinase 1 Assay (SPA)
Assay type: biochemical
test.readout: IC50
Quick note: number first, unit second.

Consider the compound `Cc1cc2c(N[C@H]3CCCNC3)ncc(C(N)=O)c2s1` and give its measured IC50.
150 nM

====

system.name: Pak1 (Homo sapiens, UniProt Q13153)
Construct: The full-length Pak1 protein is expressed in E. coli as a GST fusion; GST
Sequence (Q13153 whole entry, the tested form may be a part): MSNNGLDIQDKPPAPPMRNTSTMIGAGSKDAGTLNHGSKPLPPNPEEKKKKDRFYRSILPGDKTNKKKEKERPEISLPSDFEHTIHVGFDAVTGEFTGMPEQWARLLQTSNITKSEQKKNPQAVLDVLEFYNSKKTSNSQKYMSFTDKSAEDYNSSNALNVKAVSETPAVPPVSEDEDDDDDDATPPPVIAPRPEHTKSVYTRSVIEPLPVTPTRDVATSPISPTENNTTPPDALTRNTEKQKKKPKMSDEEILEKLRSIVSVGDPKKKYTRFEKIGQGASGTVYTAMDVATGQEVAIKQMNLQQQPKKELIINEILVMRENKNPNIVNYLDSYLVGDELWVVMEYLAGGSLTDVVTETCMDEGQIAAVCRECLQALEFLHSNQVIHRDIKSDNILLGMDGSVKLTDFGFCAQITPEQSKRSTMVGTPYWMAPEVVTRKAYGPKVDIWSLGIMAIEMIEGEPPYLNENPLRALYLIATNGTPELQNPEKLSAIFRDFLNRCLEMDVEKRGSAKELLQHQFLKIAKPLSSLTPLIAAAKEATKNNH
procedure.summary: In Vitro Pak1 Enzyme Assay (SPA)
conditions: read-out: IC50 value in the Pak 1 enzyme assay
molecules and their reported IC50
State the answer as a number, implicitly in nM.

structure.string	value.reported
NC(=O)c1cnc(N[C@H]2CCCNC2)c2cc(-c3cc(F)cc(F)c3)sc12	730

Find the recorded IC50 belonging to `NC(=O)c1cnc(N[C@H]2CCCNC2)c2cc(-c3ccc(Cl)cc3)sc12` and report it.
600

Origin of values: patent US20090275570A1
